organism: Rattus norvegicus; experiment: Binding affinity to rat tail type 1 collagen assessed as collagen protection activity against Clostridium histolyticum collagenase-mediated digestion at 10 uM after 180 mins by Sirius red dye based microplate reader analysis relative to norzoanthamine
READOUT: Activity (%)

For orientation, consider the following solved cases.
INSERT INTO measurements (chemical_string, quantitative_readout) VALUES
  ('COCCN1CCC[C@@]2(C)[C@]3(C)CCC[C@]12OC(=O)C3', 15),
  ('C[C@H]1C[C@@H]2CN(C(=O)OC(C)(C)C)[C@H](C1)O2', 23),
  ('C[C@H]1C[C@@H]2CN[C@H](C1)O2', 31),
  ('C[C@H]1C[C@@H]2CN(Cc3ccc4ccccc4c3)[C@H](C1)O2', 65),
  ('COC(=O)C[C@@]1(C)[C@H]2C(=O)C[C@@H]3C(=O)C=C(C)C[C@H]3[C@]2(C)C=C2N3C[C@H]4C[C@H](C)C[C@]3(CC[C@]21C)O4', 5),
  ('CCCCc1ccc(CN2C[C@H]3C[C@H](C)C[C@@H]2O3)cc1', 45),
  ('C[C@H]1C[C@@H]2CN(Cc3ccccc3)[C@H](C1)O2', 47),
  ('CCCCN1CCC[C@@]2(C)[C@]3(C)CCC[C@]12OC(=O)C3', 17),
  ('C[C@H]1C[C@@H]2CN3[C@](CC[C@@]4(C)[C@]5(C)CCC[C@]34OC(=O)C5)(C1)O2', 100),
  ('COC(=O)c1cccc(CN2C[C@H]3C[C@H](C)C[C@@H]2O3)c1', 25);

P. COC(=O)c1ccccc1-c1ccc(CN2C[C@H]3C[C@H](C)C[C@@H]2O3)cc1
Q. C[C@@H]1C[C@H]2CN3[C@@](CC[C@]4(C)[C@@]5(C)CCC[C@@]34OC(=O)C5)(C1)O2
R. C[C@@]12CCC[C@]3(OC(=O)C1)N(Cc1ccccc1)CCC[C@@]23C
Output the entries ranked by Activity from maximum down to minimum. As an answer, provide the labels arranged in the order called for. Q, P, R
(Q: 76%, P: 25%, R: 11%)

1. C[C@H]1C[C@@H]2CN3C4=CCCC[C@]4(C)CC[C@@]3(C1)O2
2. C[C@H]1C[C@@H]2CN(Cc3ccc(-c4ccccc4)cc3)[C@H](C1)O2
Min Activity? 1 | 2 Let me know the label of the one you choose. 2

Hey, just so you know, these numbers are from ChEMBL document CHEMBL3286166.
